The origin of these recorded values is patent US7973162B2.

Target: M2 muscarinic receptor (Homo sapiens, UniProt P08172)
Construct: expressed in transfected cells; host or cells: CHO (M2-CHO)
Sequence (P08172 whole entry): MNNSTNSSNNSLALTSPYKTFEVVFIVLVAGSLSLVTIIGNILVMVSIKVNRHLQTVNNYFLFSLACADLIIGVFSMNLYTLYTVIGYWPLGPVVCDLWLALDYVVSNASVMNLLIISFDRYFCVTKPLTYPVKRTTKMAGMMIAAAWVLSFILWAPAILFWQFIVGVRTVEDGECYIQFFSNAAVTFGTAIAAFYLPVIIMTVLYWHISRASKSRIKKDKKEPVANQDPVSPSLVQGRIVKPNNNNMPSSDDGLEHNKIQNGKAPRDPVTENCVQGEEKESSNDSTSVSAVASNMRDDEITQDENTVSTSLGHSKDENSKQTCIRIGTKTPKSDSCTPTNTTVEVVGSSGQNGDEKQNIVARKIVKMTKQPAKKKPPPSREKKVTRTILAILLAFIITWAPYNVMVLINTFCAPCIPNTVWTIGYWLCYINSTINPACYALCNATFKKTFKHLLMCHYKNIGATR
Experiment: Functional mobilization of intracellular calcium (FLIPR), M2-CHO cells
Type: cell-based
Settings: 100% efficacy = maximum response obtained with the Carbachol control

# compound, Emax
rows = [
    ("O=C1CC2CC3(CCN(C4CC5CCC(C5)C4)CC3)c3ccccc3C2O1 (centres unmarked) [Compound 28]", "< 25%"),
    ("c1ccc2c(c1)C1OCCC1CC21CCN(C2CCCCCC2)CC1 (centres unmarked) [Compound 11]", "< 25%"),
    ("CCOC(=O)N1CCC(N2CCC3(CC2)CC2CCOC2c2ccccc23)CC1 (centres unmarked) [Compound 2]", "25 to 100%"),
    ("O=C1C[C@@H]2CC3(CCN(C4CCCCC4)CC3)c3ccccc3[C@@H]2N1 [Compound 7]", "25 to 100%"),
    ("COCCN1C(=O)C[C@@H]2CC3(CCN(C4CCCCC4)CC3)c3ccccc3[C@@H]21 [Compound 16]", "< 25%"),
    ("O=C1C[C@@H]2CC3(CCN(C4CC5CCC(C5)C4)CC3)c3ccccc3[C@@H]2N1 (some centres unmarked) [Compound 5]", "25 to 100%"),
    ("O=C1C[C@@H]2[C@H](N1)c1ccccc1C21CCN(C[C@H]2C[C@@H]3CC[C@@H]2C3)CC1 [Compound 30]", "25 to 100%"),
    ("CCOC(=O)N1CCC(N2CCC3(CC2)C[C@H]2CC(=O)N[C@H]2c2ccccc23)CC1 [Compound 9]", "25 to 100%"),
]
